B1: tRNA (parent)
chain: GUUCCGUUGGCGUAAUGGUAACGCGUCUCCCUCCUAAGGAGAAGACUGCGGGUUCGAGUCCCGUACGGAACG

Variants of: B1
Run Description: yeast fitness relative to wild type (ratio to wild type); higher = fitter; tRNA-Arg(CCU), competitive growth, 37 C, YPD
Variants at the floor of the assay were thinned out.
yeast fitness listing for selected variants.
Result Type: yeast fitness

construct_sequence="GUUCCGUUGGCGUAAUGGUAACGCGUUUCCCUCCUAAGGAGAAGUCUGCGGGUUCGAGUCCCGUACGGAACG [C27U A45U]" readout_value=1.02
construct_sequence="GUUCCGUUGGCGUAAUGGUAACGCGUCUCUCUCCUAAGGAGACGACGGCGGGUGCGAGUCCCGUACGGAACG [C30U A43C U47G U54G]" readout_value=0.85
construct_sequence="GUUCCGUUGGCGUAAUGGUAACGCGUCCCCCUCCUAAGGAGAAGUCUCCGGGUUCGAGUCCCGUACGGAACG [U28C A45U G48C]" readout_value=0.638
construct_sequence="GUUCCGUUGGCGUAAUGGUAACGCGUCUCCGUCCUAAGGAGAAGCCUGAGGGUUCGAGUCCCGUACGGAACG [C31G A45C C49A]" readout_value=0.807
construct_sequence="GUUCCGUUGGCGUGAUGCUAACGCGUCUGCCUCCUAAGGAGAAGACUGCGGGUCCGAGUCCCGUACGGAACG [A14G G18C C29G U54C]" readout_value="≤ 0.5"
construct_sequence="GUUCCGUUGGCGUAAUGGUAACGCGUCUCCCUCCUAAGGAGAAGACGGCGGGUUCGAGUUCCGUCCGGAACG [U47G C60U A65C]" readout_value="≤ 0.5"
construct_sequence="GUUCCGUUGGCGUAAUGGUCACGCGUCUCCCUCCUAAGGAGAAGACUAAGGGUUCGAGUCCCGUACGGAACG [A20C G48A C49A]" readout_value=0.557
construct_sequence="GUUCCGUUGGCGUAAUGGUAACGCGUCUCCCUCCUAAGGAGAGGACUGCGGGUUCGCGUCCCGUACGGAACG [A43G A57C]" readout_value=0.525
construct_sequence="GUUCCGUCGGCGUAAUGGUAACGCGUCCCGGUCCUAAGGAGAAGACUGCGGGUUCGAGUCCCGUCCGGAACG [U8C U28C C30G C31G A65C]" readout_value="≤ 0.5"
construct_sequence="GUUCUGUUGGCGUAAUGGUAACGCGUCUCCCUCCUUAGGAGAAGACUGGGGGUUCGAGUCCCGUACGGAACG [C5U A36U C49G]" readout_value="≤ 0.5"
construct_sequence="GUUCCGUUGGCGUAAUGGUAACGCGUCUCCCUGCUAAGGAGGAGACUGCGGAUUCGAGUCCUGUACGGAUCG [C33G A42G G52A C62U A70U]" readout_value="≤ 0.5"
construct_sequence="GUUCCGUUGGCGUACUGGUAACGCGUCUCCCUCCUAAGGAGAUGAAUGCGGGUUCGAGUCCCGUACGGAACG [A15C A43U C46A]" readout_value=0.502
construct_sequence="GUUCCGUUGGCGUAAUGGUAACGCGUCUGCCUCCCAACGAGAAGACUGCGGGUUCGGGUCCCGUACGGAACG [C29G U35C G38C A57G]" readout_value="≤ 0.5"
construct_sequence="GUUCCGUUGGCGUAAUGGUAACCCGUCUCCCUCCUACGGAGGAGAGUGCGGGUUCGAGUCCCGUAUGGAACG [G23C A37C A42G C46G C66U]" readout_value="≤ 0.5"
construct_sequence="GUUCCGUUGGCGAAAUGGAAACGGGUUUCCCUGCUAAGGAGAAGACUGCGGCUUCGAGUCCCGUACGGAACG [U13A U19A C24G C27U C33G G52C]" readout_value="≤ 0.5"
construct_sequence="GUACCGUUGGCGUAAUGGUAACGCGUCUCUCUCCUAAGGAGAAGACUGCGGGUUCGAGACCCGUACGGCACG [U3A C30U U59A A69C]" readout_value="≤ 0.5"
construct_sequence="GUUUGGUUAGCGUAAUGGUAACGCGUCUCCCUCCUAAGGAGAAGACUGCGCGUUCGAGUCCCGUACGGAACG [C4U C5G G9A G51C]" readout_value="≤ 0.5"
construct_sequence="GUUCCGUUGGGGUAAUGGUAACGCGUCUCCCUCUUAAGGAGAAGACUGCGGGUUCGAGUCCCGUAUGGAACG [C11G C34U C66U]" readout_value="≤ 0.5"
construct_sequence="GUUCCGCUGGCGUAAUGGUAACGCGUCUCCCUUCUAAGGAGAAGACUGUGGGCUCGAGUCCCGUACGGAACG [U7C C33U C49U U53C]" readout_value=0.539
construct_sequence="GUUCCGGUGGCGUAAUGGUAACGCGUCUCCCUCCUAAGGAGAAGACUGUGGGUUCGAGUCCCGUGCGGAACG [U7G C49U A65G]" readout_value=0.83
construct_sequence="GUUCCGUUGGCGUAAUGGUAACGCGUCCCCUUCCUAAGGAGAAGACUGCGGGUUCGAGUCCCGUACGGAACG [U28C C31U]" readout_value=0.981
construct_sequence="GUUCCGUUGGCGUAAUAGUGACGCGUCUCCCUCCUAAGGAGAAGACUGCGGGAUCGAGUCCCGUACGGAACG [G17A A20G U53A]" readout_value="≤ 0.5"
construct_sequence="GCUCCGUUGGCGUAAUGGUAACGCGUCUCCCUCCUAAGGAGAAGAAUGCGGGUUCGAGUCCCGUACGGAACG [U2C C46A]" readout_value=0.942
construct_sequence="GUACUGUUGGCGUAAUGGUAAGGCGUCUCCCUCGUAGGGAGAAGACUGCGGGUUCGAGUCCCGUGCGGAACG [U3A C5U C22G C34G A37G A65G]" readout_value="≤ 0.5"
construct_sequence="GUUCCGGUGGCGUAAUGGUAACGCGUCUCCCUCCUAAGGAGAAAACUGCGGGUUCGAGUCUCGUACGGAACG [U7G G44A C61U]" readout_value=0.689
construct_sequence="GGUACGUUGGCGUAAUGGUAAUGCGUCGCCCUCCUAAGGAGUAGACUGCGGGUUCGAGUCCUGUACGGAUCG [U2G C4A C22U U28G A42U C62U A70U]" readout_value="≤ 0.5"
construct_sequence="GUUCCGUUGGCGGAAUGGUAACGCGUCUCCCUCCUUAGGCGAAGACUGCGGGUUCGAGUCCCGUACGGAACG [U13G A36U A40C]" readout_value="≤ 0.5"
construct_sequence="GUUCCGUUGGUGUAAUGGUAACGCGUCUUCCUCCUAAGGAGAAGACUGCGGGUUUGAGUCCCGUACGGAACG [C11U C29U C55U]" readout_value="≤ 0.5"
construct_sequence="GUUCCGUUGGCGUGAUGGUAACGCAUCUCACUCCUAAGGAGAAGACUGCGGGUUCGAGUCCCGUACGGACCG [A14G G25A C30A A70C]" readout_value="≤ 0.5"
construct_sequence="GUUCCGUUGGCGUAAUGGUAACGCGUCCCCCUCCUAAGGAGAAGACUGCGGGUUCGAGUCUCGUACGGUACG [U28C C61U A69U]" readout_value=0.727
construct_sequence="GUUCCGUUGGCGUAAUGGUAACGCGUCUACCUCCUAAGGAGAAGACUGCGGGUUCGAGUCCCGUACGGAACG [C29A]" readout_value=0.631
construct_sequence="GUUCCGUUGGCAAAAUGGUAACGCGUCUCCCUCCUAAGGAGAAGACUGCGGGUUCGAGUCCCGUACUGAACG [G12A U13A G67U]" readout_value=0.537
construct_sequence="GUUCCGUUGGCGUAAUGGUAACGCGUUUCCCUCCUAAGGAGAAGACUGCGGGUUCGAGUCCCGCACGGAACG [C27U U64C]" readout_value=0.969
construct_sequence="GUUCCGUUGGCGUAUUGGUAACGCGACUCCAUCCUAAGGAGAAGACUGCGGGUUCGAGUCCCGUACGGAACG [A15U U26A C31A]" readout_value="≤ 0.5"
construct_sequence="GUUCCGGUGGCGUAAUGGUAACGCGUCUCCCUCGUCAGGAGAAGACUGCGGGUUCGAGUCCGGUACGCAACG [U7G C34G A36C C62G G68C]" readout_value="≤ 0.5"
construct_sequence="GUUGCGUUGGCGUAGUGGUAACGCGUCUCCCUCCUAAGGAGAAGACUGCGGGUACGAGUCCCGUACGGAUCG [C4G A15G U54A A70U]" readout_value="≤ 0.5"
construct_sequence="GUUCCGUUGGCGUACUGGUAACGCGUCUCCCUCCUAAGGAGAAGAUUGCGGGUUCGAGUCCCGUACGGUACG [A15C C46U A69U]" readout_value=0.814
construct_sequence="GUUCCGUUGGGGUAAUGGUAACCCGUCUCCCUCCUAAGGAGAAGACUGUGGGUUCAAGUCCCAUACGGAACG [C11G G23C C49U G56A G63A]" readout_value="≤ 0.5"
construct_sequence="GUUCCGUUGGCGUAAUGCUAACGCGUCUCCCUCCUAAGGAGAAGACUACGGGGUCGAGUCCCGUACGGAACG [G18C G48A U53G]" readout_value="≤ 0.5"
construct_sequence="GUUCCGUUGGCGUAAUGGUAACGCGUCUUCCUCCUAAGGAGAACACUGCGGGUUCGAGUCCCGUACGGAACG [C29U G44C]" readout_value=0.825
construct_sequence="GUUCUGUUGGCGUCAUGGUAACGCGUCUCCCUCCUAAGGAGAAGACUGCGGGUUCGAGUCCCGUACGGCACG [C5U A14C A69C]" readout_value="≤ 0.5"
construct_sequence="GUUCUGUUGGCGUAAUGGUAAUGCGUCUCCUUCCUAAGGAGAAGACUGAGGGUUCGAGCCCCGUACGGUACG [C5U C22U C31U C49A U59C A69U]" readout_value="≤ 0.5"
construct_sequence="GUUCCGUUGGUGUAAUGGUAACGCGUCUCCCUCGUAAGGAGAAGACUGCCGGUUCGAGUCCCGUACGGAACG [C11U C34G G50C]" readout_value=0.576
construct_sequence="GUUCCGUUGGCGUAAUGGUAACGCGUCUCCCUGCUAAGGAGUAGACUGCGGGUUCGAGUCCCAUACGGAACG [C33G A42U G63A]" readout_value=0.516
construct_sequence="GUUCCGUUGGCGUAAUGGUAACGCGUCUCCGUCUUAAGGCGAAGACUGCGGGUUCGAGUCCCGUACGGAACG [C31G C34U A40C]" readout_value=0.526
construct_sequence="GUUCCGUUGGCGUAAUGGUAACGCGUCUCCCUCCUAAGGAGAAGACUGCGGGGUCGGGUCCCGUACGGAACG [U53G A57G]" readout_value=0.584
